Assay: yeast display, Sf9 membrane polyspecificity reagent, FACS + sequencing; frameworks hold sequencing errors
result-type: polyreactivity (PSR sort gate)

QVQLVESGGGLVQAGGSLRLSCAASGRIFVGYAMGWYRQAPGKERELVAAINRSGSSTYYADSVKGRFTISRDNAKNTVYLQMNSLKPEDTAVYYCNARSANRYGPRYDYWGQGTQVTVSS :: high polyreactivity
QVQLVESGGGLVQAGGSLRLSCAASGFIFTPYAMGWYRQAPGKERELVAAISRSAGSTYYADSVKGRFTISRDNAKNTVYLQMNSLKPEDTAVYYCAADSLTYIAYDYWGQGTQVTVSS :: high polyreactivity
QVQLVESGGGLVQAGGSLRLSCAASGINFESYVMGWYRQAPGKERELVARISYSGGSTYYADSVKGRFTISRDNAKNTVYLQMNSLIPEDTAVYYCNARYLFSGRYSRRMEYWGQGTQVTVSS :: high polyreactivity

###

Test: yeast display, Sf9 membrane polyspecificity reagent, FACS + sequencing; frameworks hold sequencing errors
result-type: polyreactivity (PSR sort gate)

QVQLVESGGGLVQAGGSLRLSCAASGSIFVQYAMGWYRQAPGKERELVATISSSGGSTYYADSVKGRFTISRDNAKNTVYLQMNRLKPEDTAVYYCAADWTLDPSYGYYADDYWGQGTQVTVSS :: low polyreactivity
QVQLVESGGGLVQAGGSLRLSCAASGRIFYHYAMGWYRQPPGKESELVAAITWSGDSTYYADSVKGRFTISRDNAQNTVYLQMNSLKPEDTAVSYCATSSPYGVRRYSRGSWGQGTQVTVSS :: high polyreactivity
QVQLVESGGGLVQAGGSLRLSCAASGIIIQINAMGWYRPAPGKERELVAAITIDGTTNYADSVKGRFTISRDNAKNTVYLQMNILKPEDTAVYYCARRRSVYVWEPYQYDYWGQGTQVTVSS :: low polyreactivity
QVQLVESGGGLVQAGGSLRLSCAASGRTFYYYAMGWYRQEPGKERELVAAISWSGGRTYYADSVKGRFTISRDNAKNTVYLQMNSLNPEDTAVYYCNAEPPRGYTVSSGGEMDYWGQGTQVTVSS :: low polyreactivity
QVQLVESGGGLVQAGGSLRLSCAASGRTFHRYTMGWYRPAPGKERELVAAISRNGGSTYYADSVKGRFTISRDNAKNTVYLQMNSLKPEDTAVYYCNKPYWSDDYYSWGQGTQVTVSS :: high polyreactivity
QVQLVESGGGLVQAGGSLRLSCAASGVYAMGWYRQAPGKERELVAAISRRGGSTYYADSVKGRFTISRDNAKNTVYLQMNSLKPEDTAVYYCAAKRAGAEYDYWGQGTQVTVSS :: high polyreactivity
QVQLVESGGGLVQAGGSLRISCAASGSICYYYGMGWYRQAPGKERELVAGISSRGGRTYYADSVKGRFTISRDNAKNTVYLQMNSLKPEDTAVYYGAADRYYYAYRYDPSGYWGQGTQVTVSS :: low polyreactivity
QVQLVESGGGLVQAGGSHRLSCASYGLIFESYVMGWDRQAPGKERELVAAIRSSGGSTYYADSVKGRFTISRDNAKNTVYLQMNCLNPEDTAVYYCAANYYYYLTISWWYAYDYWGQGTQVTVSS :: low polyreactivity

In: Give the measured polyreactivity (PSR sort gate) for QVQLVESGGGLVQAGGSLRLSCAASGSTFDIYALGWDRQAPGKEREMVAVISGGDGSTYYADSVKGRFTISRDNEKNTVYLQMNSLKPEETAVYYFAADRGTVSYLYSPRAVDYWGQGTQVTVSS
Out: low polyreactivity

In: Give the measured polyreactivity (PSR sort gate) for QVQLVESGVGLVQAGGSLSLSCAASGRTFYVNAMGWYRQAPGKERELVARITSGGSTYYGDSVKGRFTISRDNAKNTVYLQMNSLKPEDTAVYYCAKKYIGYQEGIHSTRRYDYWGQGTQVTVSS
Out: low polyreactivity

In: Give the measured polyreactivity (PSR sort gate) for QVQPVESGGGLVQAGGSLRLSCAASGSTFTVNAMRWYRQPPGNERELVAAITFSGTSTYYADSVKGRFTISRDNAKNTVYLQMNSLKPEDTAVYYCNAVVWGYSKSLGDTRTKYEYWGQVTQVTVSS
Out: high polyreactivity
